- target.desc: chimpanzee Androgen Receptor (AR), AR (gene 747460) (UniProt O97775)
- Sequence (O97775 whole entry, looked up): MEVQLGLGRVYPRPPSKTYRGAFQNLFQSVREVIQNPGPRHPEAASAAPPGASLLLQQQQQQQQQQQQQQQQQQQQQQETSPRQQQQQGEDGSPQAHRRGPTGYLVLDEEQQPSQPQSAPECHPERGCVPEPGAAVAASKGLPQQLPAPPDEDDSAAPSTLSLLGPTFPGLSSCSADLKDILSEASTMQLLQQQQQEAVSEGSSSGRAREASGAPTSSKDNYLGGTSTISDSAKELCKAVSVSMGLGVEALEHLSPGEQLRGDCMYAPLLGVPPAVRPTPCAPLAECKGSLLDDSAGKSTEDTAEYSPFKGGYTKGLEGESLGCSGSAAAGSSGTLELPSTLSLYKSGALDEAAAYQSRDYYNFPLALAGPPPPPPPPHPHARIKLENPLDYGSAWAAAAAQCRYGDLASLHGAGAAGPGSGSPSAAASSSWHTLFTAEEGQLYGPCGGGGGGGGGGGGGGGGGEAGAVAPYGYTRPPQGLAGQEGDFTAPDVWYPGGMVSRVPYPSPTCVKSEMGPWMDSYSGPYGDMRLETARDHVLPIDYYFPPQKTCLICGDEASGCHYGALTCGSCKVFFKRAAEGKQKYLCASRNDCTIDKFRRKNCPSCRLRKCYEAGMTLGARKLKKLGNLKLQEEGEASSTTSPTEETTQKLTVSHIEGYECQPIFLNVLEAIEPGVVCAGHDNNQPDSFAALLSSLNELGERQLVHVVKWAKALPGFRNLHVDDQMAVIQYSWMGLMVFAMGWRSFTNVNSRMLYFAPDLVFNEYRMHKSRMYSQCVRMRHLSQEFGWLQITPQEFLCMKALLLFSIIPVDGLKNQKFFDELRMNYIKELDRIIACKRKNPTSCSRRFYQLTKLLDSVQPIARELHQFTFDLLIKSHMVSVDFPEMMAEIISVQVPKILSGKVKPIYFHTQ
- assay.method.text: NVS_NR_cAR: NovaScreen (NVS) Nuclear Receptor Binding Assay for chimpanzee Androgen Receptor (AR) (AID 2283346);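 further: radioligand displacement from AR measured by scintillation counting in a cell-free assay; a loss of bound radioligand signal versus DMSO counts as binding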
Results filed as inconclusive are left out. The source made the active and inactive calls. How the source made its calls: active means hit-call score of the fitted dose curve at least 0.9, where 1 is the maximum; inconclusive means response in the unintended direction; inactive means score below 0.9.
Possible outcomes: True for active, False for inactive

[
  {
    "molecule": "CCC[CH2][Sn]([CH2]CCC)([CH2]CCC)[O]C(=O)c1ccccc1",
    "class": "True"
  },
  {
    "molecule": "CC1(C)CCC(Cc2ccc(Cl)cc2)C1(O)Cn1cncn1 (configuration not stated)",
    "class": "True"
  },
  {
    "molecule": "CNC(=O)O/N=C/C(C)(C)S(C)=O (configuration not stated)",
    "class": "False"
  },
  {
    "molecule": "Clc1ccc(COC(Cn2ccnc2)c2ccc(Cl)cc2Cl)cc1 (configuration not stated)",
    "class": "True"
  },
  {
    "molecule": "Cc1ccccc1C(=O)Nc1cccc(OC(C)C)c1",
    "class": "False"
  },
  {
    "molecule": "CCNc1nc(NC(C)(C)C)nc(SC)n1",
    "class": "False"
  },
  {
    "molecule": "C[C@]12CC[C@H](O)CC1=CC[C@@H]1[C@@H]2CC[C@]2(C)C(=O)CC[C@@H]12",
    "class": "True"
  },
  {
    "molecule": "CCN(CC)C(=O)Cl",
    "class": "True"
  },
  {
    "molecule": "COP(=S)(OC)Oc1ccc(Sc2ccc(OP(=S)(OC)OC)cc2)cc1",
    "class": "False"
  },
  {
    "molecule": "C[C@@H]1C[C@@H]([C@H](O)CC2CC(=O)NC(=O)C2)C(=O)[C@@H](C)C1",
    "class": "False"
  },
  {
    "molecule": "N#CCCO",
    "class": "False"
  },
  {
    "molecule": "Fc1ccc(C2(Cn3cncn3)OC2c2ccccc2Cl)cc1 (configuration not stated)",
    "class": "False"
  }
]

* * *

- assay.method.text: APR_HepG2_p53Act_24hr: Apredica 24-hour HepG2 Assay for p53 Activation (AID 2282913);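 further: p53 protein immunofluorescence averaged per cell in HepG2 with Hoechst nuclei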
- recorded.conditions: high-content imaging, actives raise or lower the signal
Activity calls are given as the source filed them. How the source made its calls: active means hit-call score of the fitted dose curve at least 0.9, where 1 is the maximum; inactive means score below 0.9.
Labels: true (1) for active, false (0) for inactive

[
  {
    "compound": "CN(C)N=O",
    "class": "false (0)"
  },
  {
    "compound": "CCN1CCC2(CC1)COc1cc3c(cc12)N(C(=O)c1ccc(-c2ccc(-c4nnc(C)o4)cc2C)cc1)CC3",
    "class": "true (1)"
  },
  {
    "compound": "O=C1C2(Cl)C3(Cl)C4(Cl)C(Cl)(Cl)C5(Cl)C3(Cl)C1(Cl)C5(Cl)C24Cl (stereo not given)",
    "class": "false (0)"
  },
  {
    "compound": "Oc1cccc2cccnc12",
    "class": "true (1)"
  },
  {
    "compound": "CC(C)(c1ccccc1)c1ccc(O)c(C(C)(C)c2ccccc2)c1",
    "class": "true (1)"
  },
  {
    "compound": "C=CC(=O)OCCCCCC(C)C",
    "class": "false (0)"
  },
  {
    "compound": "O=C(O)C(F)(F)C(F)(F)C(F)(F)C(F)(F)C(F)(F)C(F)(F)C(F)(F)C(F)(F)C(F)(F)C(F)(F)F",
    "class": "true (1)"
  },
  {
    "compound": "CC(C)(OO)c1ccccc1",
    "class": "true (1)"
  },
  {
    "compound": "C=C(C)C(=O)[O][Sn]([CH2]CCC)([CH2]CCC)[CH2]CCC",
    "class": "true (1)"
  },
  {
    "compound": "COc1cc(-c2ccc(N)c(OC)c2)ccc1N",
    "class": "false (0)"
  },
  {
    "compound": "CCC(=O)C(CC(C)N(C)C)(c1ccccc1)c1ccccc1 (stereo not given)",
    "class": "false (0)"
  },
  {
    "compound": "C[C@]12CCC(=O)C[C@@H]1CC[C@@H]1[C@@H]2CC[C@]2(C)[C@@H](O)CC[C@@H]12",
    "class": "false (0)"
  },
  {
    "compound": "CCCCCCCCc1ccc(O)cc1",
    "class": "true (1)"
  },
  {
    "compound": "C[C@@H]1C[C@@H]([C@H](O)CC2CC(=O)NC(=O)C2)C(=O)[C@@H](C)C1",
    "class": "true (1)"
  },
  {
    "compound": "CCC(C)(C)c1ccc(O)c(C(C)(C)CC)c1",
    "class": "true (1)"
  }
]

* * *

- Read-out: Interleukin-1 alpha (IL1a), IL1A (gene 3552)
- assay.method.text: BSK_LPS_IL1a: BioMAP Diversity Plus: LPS Assay for Interleukin-1 alpha (IL1a) Biomarker Activity (AID 2283080)
- recorded.conditions: primary human HUVEC with PBMC; actives raise or lower the signal
Active and inactive are the calls of the source. How the source made its calls: active means hit-call score of the fitted dose curve at least 0.9, where 1 is the maximum; inactive means score below 0.9.
Labels: active, inactive

[
  {
    "compound": "COP(=S)(OC)Oc1ccc(S(=O)(=O)N(C)C)cc1",
    "class": "active"
  },
  {
    "compound": "CC(C)c1ccc(CO)cc1",
    "class": "inactive"
  },
  {
    "compound": "CCCCCCCCC(=O)NCc1ccc(O)c(OC)c1",
    "class": "active"
  },
  {
    "compound": "O=[N+]([O-])c1ccc2c3c(cccc13)CC2",
    "class": "inactive"
  },
  {
    "compound": "C[C@]12CCC(=O)C[C@@H]1CC[C@@H]1[C@@H]2CC[C@]2(C)[C@@H](O)CC[C@@H]12",
    "class": "inactive"
  },
  {
    "compound": "O=C(OC1CCCCC1)c1ccccc1C(=O)OC1CCCCC1",
    "class": "active"
  },
  {
    "compound": "CCCCC(CC)CO[N+](=O)[O-] (stereo not drawn)",
    "class": "inactive"
  },
  {
    "compound": "Oc1ccc(-c2ccccc2)cc1",
    "class": "inactive"
  },
  {
    "compound": "O=C(O)C(F)(F)C(F)(F)C(F)(F)C(F)(F)C(F)(F)C(F)(F)F",
    "class": "inactive"
  },
  {
    "compound": "CCOC(=O)/C=C(C)/C=C/C[C@@H](C)CCCC(C)C",
    "class": "active"
  },
  {
    "compound": "Oc1cccc2cccnc12",
    "class": "inactive"
  },
  {
    "compound": "CCOP(=S)(OCC)SCCS(=O)(=O)CC",
    "class": "inactive"
  },
  {
    "compound": "CCNc1nc(NC(C)(C)C)nc(SC)n1",
    "class": "inactive"
  }
]

* * *

- Read-out: Macrophage colony-stimulating factor (MCSF), CSF1 (gene 1435)
- assay.method.text: BSK_CASM3C_MCSF: BioMAP Diversity Plus: CASM3C Assay for Macrophage colony-stimulating factor (MCSF) Biomarker Activity (AID 2283044);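 further: M-CSF protein amount quantified by ELISA after 24 h exposure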
- recorded.conditions: primary human coronary artery smooth muscle cells; actives raise or lower the signal
Active and inactive are the calls of the source. The calls were made as follows: active = hit-call score of the fitted dose curve at least 0.9, where 1 is the maximum; inactive = score below 0.9.
Outcome codes: active, inactive

[
  {
    "molecule": "CC(C)(C)CC(C)(C)c1ccc(O)cc1",
    "class": "active"
  },
  {
    "molecule": "COC(=O)Cc1ccccc1",
    "class": "inactive"
  },
  {
    "molecule": "COP(=S)(OC)Oc1ccc(Sc2ccc(OP(=S)(OC)OC)cc2)cc1",
    "class": "inactive"
  },
  {
    "molecule": "CCOP(=S)(OCC)SCSP(=S)(OCC)OCC",
    "class": "inactive"
  },
  {
    "molecule": "C[C@@H]1C[C@@H]([C@H](O)CC2CC(=O)NC(=O)C2)C(=O)[C@@H](C)C1",
    "class": "active"
  },
  {
    "molecule": "COc1cc(-c2ccc(N)c(OC)c2)ccc1N",
    "class": "inactive"
  },
  {
    "molecule": "COP(=S)(OC)Oc1c(Cl)cc(C)cc1Cl",
    "class": "inactive"
  },
  {
    "molecule": "COC(=O)c1sccc1S(=O)(=O)NC(=O)Nc1nc(C)nc(OC)n1",
    "class": "inactive"
  },
  {
    "molecule": "ClC1=C(Cl)[C@]2(Cl)[C@H]3[C@H]([C@H]4C=C[C@H]3C4)[C@@]1(Cl)C2(Cl)Cl",
    "class": "inactive"
  },
  {
    "molecule": "NC(=S)Nc1ccccc1",
    "class": "inactive"
  },
  {
    "molecule": "Oc1ccc(-c2ccccc2)cc1",
    "class": "active"
  },
  {
    "molecule": "Cc1ccccc1N",
    "class": "inactive"
  },
  {
    "molecule": "O=[N+]([O-])c1ccc2c3c(cccc13)CC2",
    "class": "inactive"
  },
  {
    "molecule": "CCOP(=S)(OCC)Oc1nc(Cl)c(Cl)cc1Cl",
    "class": "inactive"
  },
  {
    "molecule": "BrCCBr",
    "class": "inactive"
  },
  {
    "molecule": "ClC1(Cl)C2(Cl)C3(Cl)C4(Cl)C(Cl)(Cl)C5(Cl)C3(Cl)C1(Cl)C5(Cl)C24Cl (stereo unspecified)",
    "class": "inactive"
  },
  {
    "molecule": "COc1cc(OC)nc(NC(=O)NS(=O)(=O)c2ncccc2C(=O)N(C)C)n1",
    "class": "inactive"
  },
  {
    "molecule": "CCN1CCC2(CC1)COc1cc3c(cc12)N(C(=O)c1ccc(-c2ccc(-c4nnc(C)o4)cc2C)cc1)CC3",
    "class": "active"
  },
  {
    "molecule": "O=C(OC1CCCCC1)c1ccccc1C(=O)OC1CCCCC1",
    "class": "inactive"
  },
  {
    "molecule": "Nc1cccc2ccccc12",
    "class": "inactive"
  },
  {
    "molecule": "C(=NC1CCCCC1)=NC1CCCCC1",
    "class": "active"
  },
  {
    "molecule": "CC(C)(OO)c1ccccc1",
    "class": "inactive"
  },
  {
    "molecule": "Nc1ncc([N+](=O)[O-])s1",
    "class": "inactive"
  },
  {
    "molecule": "CCOP(=S)(OCC)Oc1ccc(S(C)=O)cc1 (stereo unspecified)",
    "class": "inactive"
  },
  {
    "molecule": "O=C(O)C(F)(F)C(F)(F)C(F)(F)C(F)(F)C(F)(F)C(F)(F)F",
    "class": "inactive"
  },
  {
    "molecule": "Oc1c(I)cc(I)cc1I",
    "class": "inactive"
  }
]
